Median:FITC-A by entry:
Target: T1, HLA-A*02:01 on T2 cells alone (no peptide added) (human)
T1 construct: TAP-deficient T2 cells without pulsed peptide; negative control target, and the HLA molecule whose stabilisation by peptides is read in the T2 stabilization assay; also called HLA-A*02 molecule; HLA-A2 molecule
Assay: flow cytometry, phage on T2 without peptide; secondary only 320, unstained 91.4
experimental endpoint: Median:FITC-A

- binder: "EXT017-27 scFv phage clone (scFv, full-length scFv with His+HA tags; also called EXT017-27 phage; phage clone #27) scFv: QAVLTQPPSVSVAPGKTARLTCGGNNIGSESVHWYQQKPGQAPLLVVYDDDDRPSGIPERFSGSNSGNTATLTISRVEAGDEADYYCQVWDRSSDHWFFGGGTKLTVLGSRGGGGSGGGGSGGGGSLEMAQVQLVQSGAEVKKPGASVKVSCKASGYTFTNYYIHWVRQAPGQGLEWMGIIRPSGGITNYAQKFQGRVSMTRDTSTSTVYMELSSLRSEDTAVYYCARSWDYFASNDFWGQGTLVTVSSTSGQAGQHHHHHHGAYPYDVPDYAS"
  assay value: 355
- binder: "EXT017-54 scFv phage clone (scFv, full-length scFv with His+HA tags; also called EXT017-54 phage) scFv: QAVLTQPPSLSGGPRQRVTISCSGSTSNIGKNGVSWYQQLPGKAPKLLIYNDHLLSSGVSDRFSGSKSGTSASLAISGLQSDDEADYYCATWDDTLDLPLFGGGTKVTVLGSRGGGGSGGGGSGGGGSLEMAQMQLVQSGAEVEKPGASVKLSCKASGGTFSSYAISWVRQAPGQGLEWMGGIIPIFGTANYAQKFQGRVTITADESTSTAYMELSSLRSEDTAVYYCARPSYYSIKSAWDHWGQGTLVTVSSTSGQAGQHHHHHHGAYPYDVPDYAS"
  assay value: 343

Provenance of the data: patent US20190284262A1
